Tested on: L1210 leukemia ip in BDF1 mice, survival T/C
Assay: NCI In Vivo Anticancer Drug Screen. Data for tumor model L1210 Leukemia (intraperitoneal) in B6D2F1 (BDF1) mice
Details: endpoint: mean survival time; dose: 200.0 mg/kg/injection; schedule: Q04DX002 (ip); vehicle: saline with Tween-80; higher = longer survival
Toxic doses and inconclusive results are not listed.
quantity-kind: T/C

[
  {
    "compound": "CCN(CC)N=Nc1ccc(S(=O)(=O)N(C)C)cc1",
    "assay-result": "97 % of control"
  },
  {
    "compound": "Cc1ccc(Cl)cc1NC(=O)OCCOc1ccccc1",
    "assay-result": "94 % of control"
  },
  {
    "compound": "Cc1c2oc3c(C)ccc(C(=O)OCCN4CCCCC4)c3nc-2c(C(=O)OCCN2CCCCC2)c(N)c1=O",
    "assay-result": "98 % of control"
  },
  {
    "compound": "c1ccc2c(c1)NC(OC1CCCCC1)S2 (stereo unspecified)",
    "assay-result": "90 % of control"
  },
  {
    "compound": "CC(C)(C)N1C=C(c2ccccc2)N=CC1(c1ccccc1)C(C)(C)C (stereo unspecified)",
    "assay-result": "99 % of control"
  },
  {
    "compound": "CCN(CC)c1ccc(NCN2C(=O)c3ccccc3C2=O)c(C)c1",
    "assay-result": "111 % of control"
  },
  {
    "compound": "O=[N+]([O-])c1cccc([I+]c2cccc([N+](=O)[O-])c2)c1",
    "assay-result": "92 % of control"
  },
  {
    "compound": "CCCC#CC(=O)OCCCC",
    "assay-result": "90 % of control"
  },
  {
    "compound": "CCOC(=O)C1(CCCN2C(=O)c3ccccc3C2=O)CC(C(=O)OCC)(C(=O)OCC)CCC1=O (stereo unspecified)",
    "assay-result": "100 % of control"
  },
  {
    "compound": "COc1ccc(C(=O)/C=C/c2cccc3ccccc23)cc1",
    "assay-result": "86 % of control"
  },
  {
    "compound": "OCCOc1ccccc1",
    "assay-result": "95 % of control"
  },
  {
    "compound": "CC(C)(C)SCC#CCSC(C)(C)C",
    "assay-result": "100 % of control"
  },
  {
    "compound": "Cc1ccc(S(=O)(=O)N(c2cc([N+](=O)[O-])ccc2Br)S(=O)(=O)c2ccc(C)cc2)cc1",
    "assay-result": "98 % of control"
  },
  {
    "compound": "C1CCC2C(C1)CC1CCCCC12 (stereo unspecified)",
    "assay-result": "105 % of control"
  },
  {
    "compound": "CC(=O)c1ccc(O)c2ccccc12",
    "assay-result": "95 % of control"
  },
  {
    "compound": "C1CCC(C2CCCC2)C1",
    "assay-result": "89 % of control"
  },
  {
    "compound": "O=C(Nc1ccccc1)OC1CCCCC1OC(=O)Nc1ccccc1 (stereo unspecified)",
    "assay-result": "107 % of control"
  },
  {
    "compound": "Oc1c(Br)cc(F)cc1Br",
    "assay-result": "94 % of control"
  },
  {
    "compound": "CC1(C)CC(=O)CC(C)(C)ON1",
    "assay-result": "99 % of control"
  },
  {
    "compound": "CC(=O)OCN1C(=O)N(COC(C)=O)C(c2ccccc2)(c2ccccc2)C1=O",
    "assay-result": "102 % of control"
  },
  {
    "compound": "FC(F)(F)c1cccc(NC(=S)Nc2ccccc2S)c1",
    "assay-result": "96 % of control"
  }
]
